The measured values listed here are drawn from patent US20080096907A1.

molecular target: TMPKmt (M. tuberculosis TMPK) (Mycobacterium tuberculosis); assay: biochemical; assay type: biochemical; details: pH 7.4; read-out: Ki
Sequence (P9WKE1 whole entry, looked up): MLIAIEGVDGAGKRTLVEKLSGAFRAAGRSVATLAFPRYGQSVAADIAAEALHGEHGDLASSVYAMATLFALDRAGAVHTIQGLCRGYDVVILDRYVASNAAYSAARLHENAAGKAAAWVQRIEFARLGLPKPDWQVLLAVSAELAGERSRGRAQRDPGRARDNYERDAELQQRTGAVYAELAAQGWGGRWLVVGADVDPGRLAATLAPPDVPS
Could you please report measured pKi for the items listed next?
The quantity pKi is defined as the negative base-10 logarithm of the molar concentration.

Which pKi is listed for COC(=O)CCCc1ccc(Cn2cc(C)c(=O)[nH]c2=O)cc1 [Compound 40a] ?
4.15

Endpoint output: pKi of "O=C(O)CCCCc1ccc(Cn2cc(Br)c(=O)[nH]c2=O)cc1" . Value?
4.33

Reported pKi for "Cc1cn(Cc2ccc(C#CCCCC(N)=O)cc2)c(=O)[nH]c1=O" : what is it?
3.95

Entry under review: "Cc1cn(Cc2ccc(C#CCCO)cc2)c(=O)[nH]c1=O" . Reported pKi?
4.07

May I ask what pKi has been recorded for "Cc1cn(Cc2ccc(CCCCC(=O)O)cc2)c(=O)[nH]c1=O" ?
4.14

Look at this molecule and give its reported pKi. "Cc1cn(Cc2ccc(C#CCCCC(=O)O)cc2)c(=O)[nH]c1=O"
3.92

Returns the measured pKi for the input molecule. Input: Cc1cn(Cc2ccc(CCCC(N)=O)cc2)c(=O)[nH]c1=O [Compound 40b]
3.86

For the molecule "NC(=O)CCCCCc1ccc(Cn2cc(Br)c(=O)[nH]c2=O)cc1" , what pKi is on record?
4.62

pKi lookup needed for "O=C(O)CCCCCc1ccc(Cn2cc(Br)c(=O)[nH]c2=O)cc1" , thanks.
4.38
